The measured values listed here are drawn from PubChem BioAssay (NCI).

Tested on: RPMI-8226 leukemia
Test: NCI tumour cell line growth inhibition, 48 h
Record form. Attribute: TGI. Fill in for each entry.
Numeric answer only, unit µM assumed.

### Prompt Identify the measured TGI of O=C(Nc1ccc(Cl)cc1)c1cccc(NC2=C(Cl)C(=O)N(Cc3ccccc3)C2=O)c1 for RPMI-8226 leukemia.
### Response 18.6

### Prompt Identify the measured TGI of COc1ccc(-c2nnc(COc3ccc(C(=O)/C=C/c4ccco4)cc3)o2)cc1 for RPMI-8226 leukemia.
### Response 5.94

### Prompt Identify the measured TGI of CN1CCN(CCCn2c(=O)c3sc4ncccc4c3n3nnc(-c4ccccc4)c23)CC1 for RPMI-8226 leukemia.
### Response 15.8

### Prompt Identify the measured TGI of Cc1ccc(S(=O)(=O)N/N=C/C2(c3ccccc3)c3ccccc3-c3ccccc32)cc1 for RPMI-8226 leukemia.
### Response 87.2

### Prompt Identify the measured TGI of CC1=C[C@@H]2Cc3nc4cc(Cl)ccc4c(N)c3[C@H](C1)C2 for RPMI-8226 leukemia.
### Response 13.4

### Prompt Identify the measured TGI of COc1cc(C2c3cc4c(cc3OC(C)(O)C2C)OCO4)cc(OC)c1OC (centres undefined) for RPMI-8226 leukemia.
### Response 0.721

### Prompt Identify the measured TGI of CC1=NN(c2cccc(Cl)c2)C2(C1=C/C=C/c1ccccc1)C(Cl)C(=O)N2c1nc2ccccc2s1 (centres undefined) for RPMI-8226 leukemia.
### Response 23.5

### Prompt Identify the measured TGI of CC1OC(OC2C(OC(=O)[C@]34CCC(C)(C)C[C@H]3C3=CC[C@@H]5[C@@]6(C)CC[C@H](OC7OC(C(=O)O)C(O)C(O)C7O)C(C)(C)[C@@H]6CC[C@@]5(C)[C@]3(C)C[C@H]4O)OCC(O)C2O)C(O)C(OC2OCC(O)(CO)C2O)C1OC1OCC(O)C(O)C1O (some centres undefined) for RPMI-8226 leukemia.
### Response 26

### Prompt Identify the measured TGI of C=C(Br)C(C)(Br)CCC(Br)C(C)(C)Cl (centres undefined) for RPMI-8226 leukemia.
### Response 58.4

* * *

Test system: OVCAR-4 ovarian
Assay: NCI tumour cell line growth inhibition, 48 h; in the data active = GI50 below about 0.43 µM; inactive = the rest
Allowed answers: active, inactive

### Prompt How was CCN1CCN(c2nc(C)cc(N(CCNc3ccnc4cc(Cl)ccc34)Cc3ccc4c(c3)OCO4)n2)CC1 classified in this test?
### Response inactive

### Prompt How was CC[C@H](Nc1ncnc2nc[nH]c12)c1oc2ccccc2c(=O)c1-c1cccc(F)c1 classified in this test?
### Response inactive

### Prompt How was OCC#Cc1ccccc1C#Cc1ccccc1 classified in this test?
### Response inactive

### Prompt How was COc1ccc(/C=C(/C#N)n2nnc3cccc(F)c32)cc1 classified in this test?
### Response inactive

### Prompt How was O=C(/C=C/c1ccncc1)c1cc(Cl)ccc1O classified in this test?
### Response inactive

### Prompt How was COc1cccc(-c2nc(-c3ccc(NC(=O)C(C)C)cc3)[nH]c2-c2ccnc(Br)c2)c1 classified in this test?
### Response inactive

### Prompt How was COc1ccc(-c2nnc(COc3ccc(NC(=O)Nc4cc(C(F)(F)F)cc(C(F)(F)F)c4)cc3F)o2)cc1 classified in this test?
### Response inactive

### Prompt How was Cc1cc(/C=C/c2ccc3cc(N(C)C)ccc3[n+]2C)c(C)n1-c1ccccc1 classified in this test?
### Response active

### Prompt How was COc1ccc(-c2nnc(COc3ccc(C(=O)/C=C/c4ccco4)cc3)o2)cc1 classified in this test?
### Response inactive

* * *

Tested on: EKVX NSCLC
Assay: NCI tumour cell line growth inhibition, 48 h
Record form. Attribute: TGI. Fill in for each entry.

### Prompt Identify the measured TGI of COc1cc(NCc2ccc3oc(=O)c(-c4ccccc4)nc3c2)cc(OC)c1OC for EKVX NSCLC.
### Response > 10 µM

### Prompt Identify the measured TGI of C=C1NC(=O)C(C(C)CC)NC(=O)C2CSCC(NC(=O)CCC(=O)O)C(=O)NC(Cc3ccccc3)C(=O)NC(C)C(=O)NC(CC(C)CC)C(=O)NC(C(=O)NC(Cc3ccccc3)C(=O)N3CCCC3C(=O)N2)C(C)OC(=O)C(CO)NC(=O)C(C(O)COC)N(C)C(=O)C(C(C)C)NC(=O)C(CC(C)CC)NC1=O (stereo not drawn) for EKVX NSCLC.
### Response > 6 µM

### Prompt Identify the measured TGI of CC1=NN(c2cccc(Cl)c2)C2(SCC(=O)N2c2nc3ccccc3s2)/C1=C\c1ccccc1O (stereo not drawn) for EKVX NSCLC.
### Response > 100 µM

### Prompt Identify the measured TGI of COC1=CC(=O)C(C2CC(=O)c3c(O)cc(O)cc3O2)=CC1=O (stereo not drawn) for EKVX NSCLC.
### Response 30.8 µM

### Prompt Identify the measured TGI of CN(C)c1ccc(S(=O)Nc2ccccc2)cc1 (stereo not drawn) for EKVX NSCLC.
### Response > 100 µM

### Prompt Identify the measured TGI of CCOP(=O)(OCC)C(c1ccc(F)cc1)N(C(=O)NC(F)(F)F)c1ccc(OC)cc1 (stereo not drawn) for EKVX NSCLC.
### Response > 100 µM

### Prompt Identify the measured TGI of COC(=O)C1=C(C)NC(C)=C(C(=O)OCCCN2CCC(c3ccccc3)(c3ccccc3)CC2)C1c1cccc([N+](=O)[O-])c1 (stereo not drawn) for EKVX NSCLC.
### Response 6.42 µM

### Prompt Identify the measured TGI of Cc1cccc2c1CC1(C2)Cc2c(C)cccc2C1=O (stereo not drawn) for EKVX NSCLC.
### Response 72.8 µM

### Prompt Identify the measured TGI of C=C1C(=O)O[C@H]2[C@H]1CC/C(COC(=O)c1c[nH]c3ccccc13)=C\CC[C@@]1(C)O[C@@H]21 for EKVX NSCLC.
### Response 2.01 µM

### Prompt Identify the measured TGI of OC(c1nc2ccccc2[nH]1)C(O)C(O)C(O)c1nc2ccccc2[nH]1 (stereo not drawn) for EKVX NSCLC.
### Response > 100 µM

### Prompt Identify the measured TGI of Cc1cc(I)cc(CN(C)CCCN2CCCCC2)c1O for EKVX NSCLC.
### Response 37.3 µM

### Prompt Identify the measured TGI of C=CCSc1nnc2cc(CN3CCCC3)c(-c3ccc(Cl)cc3)nn12 for EKVX NSCLC.
### Response 43.8 µM

### Prompt Identify the measured TGI of Cc1ccc(NC(=O)c2cc3cc(N=Nc4ccccc4C(=O)O)ccc3oc2=O)cc1 for EKVX NSCLC.
### Response > 100 µM

### Prompt Identify the measured TGI of CCOC(=O)c1cn2c(nc1=O)N[C@H]1CCCC[C@@H]12 for EKVX NSCLC.
### Response > 100 µM

### Prompt Identify the measured TGI of CCN1c2ccccc2C(C(SC)S(=O)(=O)c2ccc(C)cc2)c2c1[nH]c(=O)n(C)c2=O (stereo not drawn) for EKVX NSCLC.
### Response > 100 µM

### Prompt Identify the measured TGI of ClCc1cccc(Cn2cnc3ncnc(Cl)c32)c1 for EKVX NSCLC.
### Response 29.7 µM

### Prompt Identify the measured TGI of CC(=O)[C@@]12O[C@@H]1CC1C3CCC4=CC(O)CCC4(C)C3CCC12C (stereo partly drawn) for EKVX NSCLC.
### Response > 100 µM

### Prompt Identify the measured TGI of O=[N+]([O-])C(/C=C(\Cl)n1nnc2ccccc21)=C(/Cl)n1nnc2ccccc21 for EKVX NSCLC.
### Response > 100 µM

* * *

System: UO-31 renal
Assay: NCI tumour cell line growth inhibition, 48 h
measuredParameter: TGI (µM)
Numeric answer only, unit µM assumed.

### Prompt Identify the measured TGI of CC(C)(C)OC(=O)N[C@H]1CC2(C=C(Cl)C(=O)C(Cl)=C2)OC1=O for UO-31 renal.
### Response 38.8

### Prompt Identify the measured TGI of Cc1cc(/C=C/c2ccc3cc(N(C)C)ccc3[n+]2C)c(C)n1-c1ccccc1 for UO-31 renal.
### Response 4.3

* * *

Test system: UACC-62 melanoma
Assay: NCI tumour cell line growth inhibition, 48 h
measuredParameter: GI50

### Prompt Dear colleague, I am looking for the recorded GI50 of the following molecule: COc1ccc(-c2nnc(COc3ccc(C(=O)/C=C/c4ccco4)cc3)o2)cc1
### Response 3140 nM

### Prompt Dear colleague, I am looking for the recorded GI50 of the following molecule: COc1cccc(-c2nc(-c3ccc(NC(=O)C(C)C)cc3)[nH]c2-c2ccnc(Br)c2)c1
### Response 2570 nM

### Prompt Dear colleague, I am looking for the recorded GI50 of the following molecule: ClCc1cccc(Cn2cnc3ncnc(Cl)c32)c1
### Response 2160 nM

### Prompt Dear colleague, I am looking for the recorded GI50 of the following molecule: C[C@@H]1CCC2[C@@H](C)[C@@H](OCC(CO[C@H]3OC4O[C@@]5(C)CC[C@H]6[C@H](C)CCC([C@H]3C)[C@@]46OO5)OC(=O)CCC(=O)O)OC3O[C@@]4(C)CC[C@@H]1[C@]32OO4 (some centres undefined)
### Response 76.5 nM
